Numbers sourced from patent US20260242478A1.

# Anti-CD28 Fab signal in the presence of CD28 listing for each entry below
target-system: T1, Anti-CD28 Fab (SEQ ID NOs: 696, 697)
T1 construct: In the phage ELISA the Fab was biotinylated and captured on neutravidin coated plates
T1 sequence (VH, as listed by the source, chain 1 of 2): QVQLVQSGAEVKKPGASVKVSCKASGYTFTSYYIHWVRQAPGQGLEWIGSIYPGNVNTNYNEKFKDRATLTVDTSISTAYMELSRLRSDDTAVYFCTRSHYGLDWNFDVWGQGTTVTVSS
T1 sequence (VL, as listed by the source, chain 2 of 2): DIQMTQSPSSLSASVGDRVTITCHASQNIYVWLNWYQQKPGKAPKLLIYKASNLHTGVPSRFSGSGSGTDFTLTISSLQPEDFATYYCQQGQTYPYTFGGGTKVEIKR
assay-method-text: phage binding ELISA on captured anti-CD28 Fab, wells pre-incubated with CD28 antigen as competitor;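 note: crude clonal phage supernatants added to wells preloaded with CD28 antigen, bound phage read by HRP-conjugated anti-M13 antibody, control wells got blocking buffer alone without CD28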
Please state the value as a number alone, without comment.

binder	endpoint-value
YCEGHSAAYMQKCL (tested as crude clonal phage supernatant) [Phage-963]	0.09
YCDGHAQEYMVKCL (tested as crude clonal phage supernatant) [Phage-960]	0.06
YCSGHLPEYMWKCL (tested as crude clonal phage supernatant) [Phage-958]	0.1

Fill blank: measured Anti-CD28 Fab signal in the presence of CD28 of the binder YCEGHMPEYLQKCL (tested as crude clonal phage supernatant) [Phage-964] is ____. 0.1

Request the reported Anti-CD28 Fab signal in the presence of CD28 associated with YCDGHSEAYMWKCL (tested as crude clonal phage supernatant) [Phage-969] 0.07

For YCDGHRLEYLEKCL (tested as crude clonal phage supernatant) [Phage-966] , what is its reported Anti-CD28 Fab signal in the presence of CD28? 0.06

Given the entry YCDGHSVKYMAKCL (tested as crude clonal phage supernatant) [Phage-957] , report its measured Anti-CD28 Fab signal in the presence of CD28. 0.06

So what does the record say about Anti-CD28 Fab signal in the presence of CD28 for YCAGHLDQYIEKCL (tested as crude clonal phage supernatant) [Phage-967] ? 0.1

Please give the measured Anti-CD28 Fab signal in the presence of CD28 for this binder: YCDGHAQEFIWKCL (tested as crude clonal phage supernatant) [Phage-968] 0.1
